- Assayed target: hQ23 (HEK-293 cell line stably transfected with one of the members of the KCNQ family) (Homo sapiens, UniProt O43525+O43526)
- Construct: expressed in transfected cells; host or cells: HEK-293, stably transfected
- Sequence (O43526 whole entry): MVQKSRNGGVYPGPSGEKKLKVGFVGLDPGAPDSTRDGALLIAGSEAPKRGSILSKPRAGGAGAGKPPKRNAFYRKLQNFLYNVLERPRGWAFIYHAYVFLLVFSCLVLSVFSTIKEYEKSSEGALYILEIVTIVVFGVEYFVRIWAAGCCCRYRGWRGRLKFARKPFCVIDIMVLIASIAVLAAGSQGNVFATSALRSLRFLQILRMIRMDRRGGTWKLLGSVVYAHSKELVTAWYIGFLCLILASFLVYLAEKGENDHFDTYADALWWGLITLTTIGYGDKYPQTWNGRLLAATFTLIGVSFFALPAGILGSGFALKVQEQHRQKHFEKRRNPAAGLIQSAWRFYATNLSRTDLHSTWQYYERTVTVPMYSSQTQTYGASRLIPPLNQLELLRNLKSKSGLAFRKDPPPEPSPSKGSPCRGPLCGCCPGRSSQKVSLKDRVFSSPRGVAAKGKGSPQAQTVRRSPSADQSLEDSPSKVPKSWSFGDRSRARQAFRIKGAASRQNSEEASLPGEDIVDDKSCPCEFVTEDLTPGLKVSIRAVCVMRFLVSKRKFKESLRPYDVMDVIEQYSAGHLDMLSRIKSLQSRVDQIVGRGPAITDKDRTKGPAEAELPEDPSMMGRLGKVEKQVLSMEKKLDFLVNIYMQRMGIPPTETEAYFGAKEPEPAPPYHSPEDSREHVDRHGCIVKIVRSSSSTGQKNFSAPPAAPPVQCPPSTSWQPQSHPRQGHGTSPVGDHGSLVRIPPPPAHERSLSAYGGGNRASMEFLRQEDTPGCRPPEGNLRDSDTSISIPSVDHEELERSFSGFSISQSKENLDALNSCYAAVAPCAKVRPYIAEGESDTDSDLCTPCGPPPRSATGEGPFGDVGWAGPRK
- Sequence (O43525 whole entry): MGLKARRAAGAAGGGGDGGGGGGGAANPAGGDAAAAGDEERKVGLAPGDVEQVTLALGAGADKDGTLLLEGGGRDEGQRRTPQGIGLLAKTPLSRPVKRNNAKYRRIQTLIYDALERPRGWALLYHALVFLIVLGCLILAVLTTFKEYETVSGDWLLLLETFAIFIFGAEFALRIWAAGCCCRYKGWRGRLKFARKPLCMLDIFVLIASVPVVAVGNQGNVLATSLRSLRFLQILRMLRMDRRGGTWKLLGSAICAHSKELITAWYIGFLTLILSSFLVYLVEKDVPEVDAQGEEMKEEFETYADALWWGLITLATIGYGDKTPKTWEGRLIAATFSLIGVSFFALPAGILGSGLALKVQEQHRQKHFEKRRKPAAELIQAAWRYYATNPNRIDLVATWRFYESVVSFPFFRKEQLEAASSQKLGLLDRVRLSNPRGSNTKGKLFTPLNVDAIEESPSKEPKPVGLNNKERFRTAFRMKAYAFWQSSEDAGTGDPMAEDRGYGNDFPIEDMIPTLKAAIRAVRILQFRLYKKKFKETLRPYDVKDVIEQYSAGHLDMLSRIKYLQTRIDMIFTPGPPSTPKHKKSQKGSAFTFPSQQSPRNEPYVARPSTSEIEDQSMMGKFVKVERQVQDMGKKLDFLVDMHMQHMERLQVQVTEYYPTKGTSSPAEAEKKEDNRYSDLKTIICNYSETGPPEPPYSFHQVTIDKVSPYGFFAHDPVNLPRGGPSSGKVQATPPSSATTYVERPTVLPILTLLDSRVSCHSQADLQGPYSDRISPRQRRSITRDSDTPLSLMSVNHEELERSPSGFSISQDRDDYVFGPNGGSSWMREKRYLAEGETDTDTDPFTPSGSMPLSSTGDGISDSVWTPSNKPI
- Assay summary: Thallium flux assay for KCNQ channel blockers (FLIPR, BTC dye)
- Type: cell-based
- Run conditions: hQ23 cells, thallium flux
Parameter: EC50 (µM)

Please review the following examples before continuing.
Molecule: CC1CCC(Nc2ncc(C(=O)NCc3cc(F)cc(C(F)(F)F)c3)c(C3(c4ccc(Cl)cc4)CCCC3)n2)CC1 (stereo not shown) [Example 190]
EC50 (µM): 0.163
--
Molecule: CC1CCCN(c2ncc(C(=O)NCc3ccc4c(c3)OCO4)c(C3(c4ccccc4)CCCC3)n2)C1 (stereo not shown) [Example 92]
EC50 (µM): 0.057
--
Molecule: CC1CCN(c2ncc(C(=O)NCc3cc(F)cc(C(F)(F)F)c3)c(C3(c4ccccc4)CCCC3)n2)CC1 [Example 127]
EC50 (µM): 0.01
--
Molecule: CCC(C)Nc1ncc(C(=O)N(CC)Cc2ccccc2)c(C2(c3ccc(F)cc3)CCCC2)n1 (stereo not shown) [Example 231]
EC50 (µM): 0.786

I. CC1CCCN(c2ncc(C(=O)NCc3ccc(Cl)cc3Cl)c(C3(c4ccc(Cl)cc4)CCCC3)n2)C1 (stereo not shown) [Example 180]
II. CN1CCC(N(C)c2ncc(C(=O)NCc3ccc(C(F)(F)F)cc3)c(C3(c4ccc(Cl)cc4)CCCC3)n2)CC1 [Example 204]
III. CC1CCC(Nc2ncc(C(=O)NCc3ccc(F)cc3F)c(C3(c4ccc(Cl)cc4)CCCC3)n2)CC1 (stereo not shown) [Example 186]
Output the entries ranked by EC50 from maximum down to minimum. Write the labels in rank order as requested.
II, III, I
(II: 0.4 µM, III: 0.128 µM, I: 0.01 µM)

====

- Assayed target: hQ23 (HEK-293 cell line stably transfected with one of the members of the KCNQ family) (Homo sapiens, UniProt O43525+O43526)
- Construct: expressed in transfected cells; host or cells: HEK-293, stably transfected
- Assay summary: Thallium flux assay for KCNQ channel blockers (FLIPR, BTC dye)
- Format: cell-based
- Run conditions: hQ23 cells, thallium flux
Parameter: EC50 (nM)

Compound: CC1CCN(c2ncc(C(=O)N(C)Cc3ccccc3)c(C3(c4ccccc4)CCCC3)n2)CC1
Parameter: EC50
Unit label: nM
Result: 270

P. CN1CCN(c2ncc(C(=O)NCc3ccc(Cl)c(Cl)c3)c(C3(c4ccc(Cl)cc4)CCCC3)n2)CC1
Q. CC1CCCN(c2ncc(C(=O)NCc3ccc(Cl)c(Cl)c3)c(C3(c4ccc(Cl)cc4)CCCC3)n2)C1 (stereo not drawn)
Pick one: P or Q . Which one has the lower reported EC50? Response format: the label of the selected entry.
Q
